# experiment-notes: NCI Yeast Anticancer Drug Screen. Data for the rad14 strain (AID 159);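 also: 0% = growth of vehicle-treated control cultures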
# measurement-context: S. cerevisiae rad14 strain growth inhibition; at 3.7 µM; stronger effect = higher value
# Description: Growth inhibition of yeast strains with defined genetic alterations is measured as a screen for potential anti-cancer activity. Selected strains with alterations in DNA damage repair or cell cycle control were exposed to compounds and growth inhibition was measured relative to vehicle treated controls. The strain used in this assay is rad14
Compounds without any hit were thinned out: in the full panel of roughly 79,000, 15% have a hit.
Measured growth inhibition by item
reported-endpoint: growth inhibition (%)

[
  {
    "compound": "Cc1ccc(N=Nc2ccc(O)c(=O)cc2)cc1",
    "units-text": "%",
    "recorded-number": 1
  },
  {
    "compound": "CCOC(=N)c1ccc(O)c(OC)c1",
    "units-text": "%",
    "recorded-number": -6
  },
  {
    "compound": "CN1C(=O)c2ccc3ccccc3c2C1=O",
    "units-text": "%",
    "recorded-number": 8
  },
  {
    "compound": "O=[N+]([O-])c1cccc2nc3ccccc3c(NCCC[N+]3([O-])CCCCC3)c12",
    "units-text": "%",
    "recorded-number": 28
  },
  {
    "compound": "CSc1nc(C)c(CCOC(C)=O)c(N=P(c2ccccc2)(c2ccccc2)c2ccccc2)n1",
    "units-text": "%",
    "recorded-number": 2
  },
  {
    "compound": "CCC(C)OC(=O)Nc1ccc(C)c(NC(=O)OC(C)CC)c1 (stereo not given)",
    "units-text": "%",
    "recorded-number": 2
  },
  {
    "compound": "C=C(Cl)COC(=O)Nc1cccc(Cl)c1",
    "units-text": "%",
    "recorded-number": 2
  },
  {
    "compound": "CC(C)OC(=O)c1ccc(CCc2cc(O)c(Br)cc2O)cc1",
    "units-text": "%",
    "recorded-number": 53
  },
  {
    "compound": "CN(C)c1ccc(C2CC(C)(O)Oc3cc4c(cc32)OCO4)cc1 (stereo not given)",
    "units-text": "%",
    "recorded-number": 1
  },
  {
    "compound": "Nc1ncc(-c2ccc(Br)cc2)s1",
    "units-text": "%",
    "recorded-number": -8
  }
]

---

# experiment-notes: NCI Yeast Anticancer Drug Screen. Data for the sgs1 strain (AID 173);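 also: 0% = growth of vehicle-only control cultures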
# measurement-context: S. cerevisiae sgs1 mutant, at 1.2 µM, stronger effect = higher value
This is part of a sample that, as a whole, favours compounds with a hit. Of some 79,000 tested, about 15% had one in any assay.
reported-endpoint: growth inhibition (%)

[
  {
    "compound": "O=C(NCCCNCCN1C(=O)c2cccc3cc([N+](=O)[O-])cc(c23)C1=O)c1cc(-c2ccccc2)nc2ccccc12",
    "reported-endpoint": "growth inhibition",
    "recorded-number": -1
  },
  {
    "compound": "Cc1ccc([N+]2=NC(c3ccccc3)=NN(c3ccccc3)C2)cc1",
    "reported-endpoint": "growth inhibition",
    "recorded-number": 0
  },
  {
    "compound": "C=C(Cl)COC(=O)Nc1cccc(Cl)c1",
    "reported-endpoint": "growth inhibition",
    "recorded-number": 0
  },
  {
    "compound": "Cc1cc(C)c(NC(=S)NC(=O)c2ccccc2)cc1C",
    "reported-endpoint": "growth inhibition",
    "recorded-number": -62
  },
  {
    "compound": "COc1cc(CSc2ccc(O)cc2)cc(O)c1O",
    "reported-endpoint": "growth inhibition",
    "recorded-number": -1
  },
  {
    "compound": "CC(/C=C/c1ccccc1)=N\\NC(N)=S",
    "reported-endpoint": "growth inhibition",
    "recorded-number": -3
  },
  {
    "compound": "O=c1ccc(=O)n(-c2ccccc2)[nH]1",
    "reported-endpoint": "growth inhibition",
    "recorded-number": 15
  },
  {
    "compound": "CN(C)c1nc(=Nc2cccc(Cl)c2)ss1",
    "reported-endpoint": "growth inhibition",
    "recorded-number": 15
  },
  {
    "compound": "CC(=O)OCC(C)Cc1cc2c(cc1Br)OCO2 (stereo unspecified)",
    "reported-endpoint": "growth inhibition",
    "recorded-number": -66
  },
  {
    "compound": "N=C1N=Nc2nc(C3(c4nc5n(c4O)C(=N)N=N5)Cc4ccccc4C3=O)c(O)n21 (stereo unspecified)",
    "reported-endpoint": "growth inhibition",
    "recorded-number": 4
  },
  {
    "compound": "CC(C)(C)CC(C)(C)c1cc(O)c(O)c(CN2CCCCC2)c1",
    "reported-endpoint": "growth inhibition",
    "recorded-number": 1
  },
  {
    "compound": "COc1c(O)c(C=O)c(Br)c(C=O)c1O",
    "reported-endpoint": "growth inhibition",
    "recorded-number": -2
  },
  {
    "compound": "CN(C)N=Nc1ccccc1C(=O)NC#N",
    "reported-endpoint": "growth inhibition",
    "recorded-number": -6
  },
  {
    "compound": "CC(=O)Nc1ccc2c(c1)Cc1cc(N=C3C=CC(=O)O3)ccc1-2",
    "reported-endpoint": "growth inhibition",
    "recorded-number": 14
  },
  {
    "compound": "COC(=O)NC1C(C)OC(OC2C/C=C(/C)C3C=CC4C(OC5CC(OC6CC(O)C(OC7CC(O)C(OC)C(C)O7)C(C)O6)C(O)C(C)O5)C(C)CC(C)C4C3(C)/C(O)=C3\\C(=O)OC4(CC(C)C(CO)=CC4/C=C\\2C)C3=O)CC1(C)[N+](=O)[O-] (stereo unspecified)",
    "reported-endpoint": "growth inhibition",
    "recorded-number": 0
  },
  {
    "compound": "CCCCOP(=O)(CCCP(=O)(OCCCC)OCCCC)OCCCC",
    "reported-endpoint": "growth inhibition",
    "recorded-number": -3
  },
  {
    "compound": "CCN(CC)CCNc1ccc2ncn3c4cc(OC)c(OC)c(=O)c4c(O)c1c23",
    "reported-endpoint": "growth inhibition",
    "recorded-number": 0
  },
  {
    "compound": "CCOC1(c2cccc([N+](=O)[O-])c2)c2ccccc2Oc2ccccc21",
    "reported-endpoint": "growth inhibition",
    "recorded-number": -1
  },
  {
    "compound": "CN(C)C=NC1CCC(C(C)(C)C)CC1 (stereo unspecified)",
    "reported-endpoint": "growth inhibition",
    "recorded-number": 1
  },
  {
    "compound": "CCCCCCCCCCCC(O)S(=O)(=O)O (stereo unspecified)",
    "reported-endpoint": "growth inhibition",
    "recorded-number": 1
  },
  {
    "compound": "O=C(COC(=O)c1ccccc1)c1ccc(Br)cc1",
    "reported-endpoint": "growth inhibition",
    "recorded-number": -12
  },
  {
    "compound": "Cc1cc(C(C)(C)CC(C)(C)C)ccc1O",
    "reported-endpoint": "growth inhibition",
    "recorded-number": -17
  },
  {
    "compound": "COc1ccc2[nH]cc([C@@H]3C4CCC(C4)[C@H]3NCc3cccc(CN[C@H]4C5CCC(C5)[C@@H]4c4c[nH]c5ccc(OC)cc45)c3)c2c1",
    "reported-endpoint": "growth inhibition",
    "recorded-number": -38
  },
  {
    "compound": "O=C1C=C(c2ccccc2)OC1(c1ccccc1)N1CCOCC1 (stereo unspecified)",
    "reported-endpoint": "growth inhibition",
    "recorded-number": 0
  },
  {
    "compound": "O=C(/C=C(/c1ccccc1)N1CCCCC1)c1ccccc1",
    "reported-endpoint": "growth inhibition",
    "recorded-number": -1
  },
  {
    "compound": "Brc1ccccc1-c1ncc(-c2ccccc2)o1",
    "reported-endpoint": "growth inhibition",
    "recorded-number": -1
  },
  {
    "compound": "CCCCCCCCCCCC1N=C(N)NC(CCCO)=C1C(=O)OC (stereo unspecified)",
    "reported-endpoint": "growth inhibition",
    "recorded-number": 48
  },
  {
    "compound": "Cc1c(C)c(C)c(CSC(=N)N)c(C)c1C",
    "reported-endpoint": "growth inhibition",
    "recorded-number": -51
  },
  {
    "compound": "COc1cc(/C=N/Nc2nnc3c4ccccc4c4ncccc4c3n2)cc(OC)c1OC",
    "reported-endpoint": "growth inhibition",
    "recorded-number": 2
  },
  {
    "compound": "S=C1SCN(C2CCCCC2)CN1C1CCCCC1",
    "reported-endpoint": "growth inhibition",
    "recorded-number": -36
  },
  {
    "compound": "c1ccc(-c2cnc3ccccc3c2)cc1",
    "reported-endpoint": "growth inhibition",
    "recorded-number": -3
  },
  {
    "compound": "CCCC(=O)Oc1ccc(/C=N/NC(N)=S)nc1",
    "reported-endpoint": "growth inhibition",
    "recorded-number": -10
  },
  {
    "compound": "CN(CCN(C)Cc1ccccc1)Cc1ccccc1",
    "reported-endpoint": "growth inhibition",
    "recorded-number": -6
  },
  {
    "compound": "O=C(O)C1CC(c2ccccc2)=NN1c1ccccc1 (stereo unspecified)",
    "reported-endpoint": "growth inhibition",
    "recorded-number": -29
  },
  {
    "compound": "CCCC/C=C/C(C)(C(=O)OCC)C(=O)OCC",
    "reported-endpoint": "growth inhibition",
    "recorded-number": -3
  },
  {
    "compound": "O=C1c2ccccc2C(=O)N1CCCC(=O)n1cc(F)c(=O)[nH]c1=O",
    "reported-endpoint": "growth inhibition",
    "recorded-number": -14
  },
  {
    "compound": "CN(C)[C@@H]1C(=O)C(C(N)=O)=C(O)[C@@]2(O)C(=O)C3=C(O)c4c(O)cccc4C[C@H]3C[C@@H]12",
    "reported-endpoint": "growth inhibition",
    "recorded-number": -7
  },
  {
    "compound": "CN(C)/C=C/c1nnc([N+](=O)[O-])s1",
    "reported-endpoint": "growth inhibition",
    "recorded-number": -2
  },
  {
    "compound": "CCOC(=O)[C@H]1Nc2ccc(OC)cc2C2c3ccccc3CC21 (stereo partly specified)",
    "reported-endpoint": "growth inhibition",
    "recorded-number": 22
  },
  {
    "compound": "CCCCC(CC)C(=O)[O][Sn]([CH2]CCC)([CH2]CCC)[O]C(=O)C(CC)CCCC (stereo unspecified)",
    "reported-endpoint": "growth inhibition",
    "recorded-number": 2
  },
  {
    "compound": "NNC(=O)CCc1cc2ccccc2c2ccccc12",
    "reported-endpoint": "growth inhibition",
    "recorded-number": -20
  }
]
